# assay.target: synthetic amyloid fibrils composed of recombinant Vλ6 protein Wil
# assay.explanation: SPR
Square brackets hold non-standard residues; d marks the D form. Ends that are not written are not given here.
attribute.measured: kd2 (two-state model, second step) (s⁻¹)
// units = s⁻¹; emit number, no label

Problem: Record request: kd2 (two-state model, second step) value, item GGGYSKGGKGGGKGGKGGGKGGKGGGKGGKG [peptide p5(coil)]
Solution: 1.5e-05

Problem: Param item = GGG[dY][dS][dK][dA][dQ][dK][dA][dQ][dA][dK][dQ][dA][dK][dQ][dA][dQ][dK][dA][dQ][dK][dA][dQ][dA][dK][dQ][dA][dK][dQ] [peptide p5(D)] ; retrieve measured kd2 (two-state model, second step).
Solution: 0.0017

Problem: Given VYKVKTKVKTKVKTKVKT [peptide p5(sheet)] , state its recorded kd2 (two-state model, second step).
Solution: 0.0028

Problem: Consider the binder GGGYSKAQKAPAKQAKQPQKAQKAPAKQAKQ [peptide p5(Pro3)] and give its measured kd2 (two-state model, second step).
Solution: 0.0024

Problem: Please report the recorded kd2 (two-state model, second step) for GGGYSKAQKAQAKQAKQAQKAQKAQAKQAKQ [peptide p5] .
Solution: 0.0011
